All figures here come from PubChem BioAssay.

test: inhibitors of hydroxyurea-induced Chk1 phosphorylation, primary screen, imaging, HeLa, phospho-Chk1 antibody, percent positive cells (AID 1186); details: hydroxyurea-induced phospho-Chk1 immunofluorescence imaging, higher = more signal
z-score by entry:

| molecule | z-score |
| --- | --- |
| CCN(CC)c1ccc(N2CC=CC34O[C@@H]5C=CCCOC(=O)C5[C@H]3C(=O)N(CCCCCO)[C@@H]4C2=O)cc1 (some centres undefined) | 0.234 |
| C=CC[C@@]1(C(=O)NCC(O)CO)N=C(c2ccc(OCCCO)cc2)O[C@@H]1c1ccccc1N=[N+]=[N-] (some centres undefined) | -0.0138 |
| O=c1oc(-c2ccccc2)nc2cc(Br)ccc12 | 0.208 |
| C=CCNC(=O)[C@H]1[C@@H]2C(=O)O[C@@H](c3ccccc3)[C@@H](c3ccccc3)N2[C@@H](c2ccc(O)cc2)[C@]12C(=O)N(C(=O)OCCOC)c1ccc(C#CCCO)cc12 | -0.537 |
| CC(=O)C1=CCC(c2ccccc2)N(S(=O)(=O)c2ccc(C)cc2)C1 (centres undefined) | 0.532 |
| O=C/C=C/c1ccc(Cl)cc1 | -0.0674 |
| CC(C)(C)OC(=O)CC[C@@]1(C(=O)O)N=C(c2ccc(OCCCO)cc2)O[C@@H]1c1ccccc1N=[N+]=[N-] | -0.157 |
| COCCOC(=O)N1C(=O)[C@@]2(c3cc(C#CCC(C(=O)OC)C(=O)OC)ccc31)[C@H](C(=O)N1CCCCCCC1)[C@H]1C(=O)O[C@H](c3ccccc3)[C@H](c3ccccc3)N1[C@@H]2c1ccc(OCCO)cc1 | -0.479 |
| N#Cc1ccc(NN2C(C(O)c3ccc([N+](=O)[O-])cc3)C=CC3C(=O)N(c4ccccc4)C(=O)C32)cc1 (centres undefined) | 0.446 |
| Cc1ccc(S[C@]2(C(=O)NCc3ccccc3)CC(=O)N(Cc3ccccc3)[C@@H]2c2ccc(CO)cc2)cc1 | -0.0397 |
| COC(=O)c1ccc(C(O)C2C=CC3C(=O)N(c4ccccc4)C(=O)C3N2Nc2ccc(C#N)cc2)o1 (centres undefined) | -0.645 |
| COCC(=C=CC[C@@H](O)c1ccc(CO)o1)CCO | -1 |
| CCCN1C(=O)[C@]2(COC(c3ccc(OCCCO)cc3)=N2)Cc2ccccc21 | -0.0155 |
| CCOC(=O)[C@H]1C[C@H]2O[C@@]23C[C@H]1C(=O)N1CCCC1[C@@H]3O[Si](C)(C)C(C)(C)C (some centres undefined) | -0.0084 |
| CCOC(=O)C1=C[C@@H](CC)N(S(=O)(=O)c2ccc(C)cc2)[C@H]1c1ccccc1 | 0.553 |
| CC(C)=CCCC(C)=CC(O)C1C=CC2C(=O)N(c3ccccc3)C(=O)C2N1Nc1ccccc1 (centres undefined) | 0.881 |
| C=CCC(OC(C)=O)[C@@H]1[C@@H](N(Cc2cc3ccccc3o2)C(=O)c2ccc(C)cc2)c2cc(OCCCO)ccc2N1C(=O)c1ccc2ccccc2c1 (some centres undefined) | -0.252 |
| CCCNC(=O)[C@@]1(c2ccc([N+](=O)[O-])cc2)CC(=O)N(CC23CC4CC(CC(C4)C2)C3)[C@@H]1c1ccc(CO)cc1 | -0.29 |
| CC(C)(C)OC(=O)CC[C@@]1(C(=O)NCCN2CCOCC2)N=C(c2ccc(OCCCO)cc2)O[C@@H]1c1ccccc1 | -0.396 |
| CC(C)c1ccc(NN2C(C(O)c3c(F)cccc3Cl)C=CC3C(=O)N(c4ccccc4)C(=O)C32)cc1 (centres undefined) | 0.561 |
| C=C[C@H](COC(C)=O)N(Cc1ccc(OC(C)=O)c(OC)c1)S(=O)(=O)c1ccc(Br)cc1 | -0.245 |
| COCCOC(=O)N1C(=O)[C@@]2(c3cc(C#CCNC(N)=O)ccc31)[C@H](c1ccc(O)cc1)N1[C@H](c3ccccc3)[C@H](c3ccccc3)OC(=O)[C@H]1[C@@H]2C(=O)Nc1nc2ccccc2s1 | -0.373 |
| CC(=CC1CCCCC1)[C@@H](NC(=O)c1ccc(C(F)(F)F)cc1)c1ccc(-c2ccccc2)cc1 | 0.191 |
| C=CC[C@@H](OC(=O)Nc1ccc(OC)cc1)c1ccc(O)c2ccccc12 | 0.311 |
